# TESTED_ON: MS2 coat protein, dlFG mutant (Escherichia phage MS2, UniProt P03612, del68-81insG)
# ASSAY_EXPLANATION: 4 mM Mg2+; miR-208a RNA 100 nM (AU…UUGU); RNA-MaP array; 100 mM Tris-HCl pH 7.5, 80 mM KCl, 4 mM MgCl2, 0.1 mg/mL BSA, 1 mM DTT, 0.01 mg/mL yeast tRNA, 0.01% Tween-20; protein 1.5 nM to 3 uM; 37 C (Table S3)
# REPORTED_CONDITIONS: chain copies: 2; label: tethered by stalled RNA polymerase
PROPERTY: Kd

| BINDER | RESULT |
| --- | --- |
| Eterna 10033 (Sensor v3, turn-off variant 2) (ssRNA) RNA: ACUAGCGAAAUGCUCGUCUUAUUUUUGUAGAGGUUCUAAACAUGAGGAUCACCCAUGUAGUGGUUUUUGUGGAGGUA | 265 nM |
